Target: Cox-2 (Homo sapiens)
Construct: incubation of human whole blood with LPS (lipopoly saccharide), which induces Cox-2; endogenous in cells
Sequence (P35354 18-604): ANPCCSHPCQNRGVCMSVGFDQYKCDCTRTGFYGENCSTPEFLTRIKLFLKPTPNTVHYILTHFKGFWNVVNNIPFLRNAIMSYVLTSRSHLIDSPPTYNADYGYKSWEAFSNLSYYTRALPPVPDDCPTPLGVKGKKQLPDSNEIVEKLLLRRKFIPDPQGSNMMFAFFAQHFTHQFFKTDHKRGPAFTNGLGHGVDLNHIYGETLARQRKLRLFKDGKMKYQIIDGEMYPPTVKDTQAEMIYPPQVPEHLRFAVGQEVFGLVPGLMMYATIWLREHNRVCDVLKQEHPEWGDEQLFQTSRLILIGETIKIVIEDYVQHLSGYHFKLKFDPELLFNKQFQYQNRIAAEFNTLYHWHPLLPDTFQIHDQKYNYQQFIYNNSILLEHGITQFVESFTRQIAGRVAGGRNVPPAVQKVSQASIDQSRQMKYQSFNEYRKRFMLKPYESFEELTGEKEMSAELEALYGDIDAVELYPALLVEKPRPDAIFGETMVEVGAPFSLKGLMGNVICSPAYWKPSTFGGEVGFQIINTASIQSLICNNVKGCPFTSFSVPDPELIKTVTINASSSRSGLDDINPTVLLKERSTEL
Assay: Human whole blood assay, Cox-2 (LPS-induced PGE2 production)
Details: PGE2 after LPS induction, 24 hours
measured_property: IC50

## Input Let me know recorded IC50 for CS(=O)(=O)c1ccc(-c2c(-c3ccccc3)nc3sccn23)cc1 [Example 1] , thanks.
## Output 330 nM

###

Molecular target: Cox-1 (Homo sapiens, UniProt P23219)
Construct: platelets in whole blood contain a large amount of the Cox-1 enzyme; endogenous in cells
Sequence (P23219 24-599): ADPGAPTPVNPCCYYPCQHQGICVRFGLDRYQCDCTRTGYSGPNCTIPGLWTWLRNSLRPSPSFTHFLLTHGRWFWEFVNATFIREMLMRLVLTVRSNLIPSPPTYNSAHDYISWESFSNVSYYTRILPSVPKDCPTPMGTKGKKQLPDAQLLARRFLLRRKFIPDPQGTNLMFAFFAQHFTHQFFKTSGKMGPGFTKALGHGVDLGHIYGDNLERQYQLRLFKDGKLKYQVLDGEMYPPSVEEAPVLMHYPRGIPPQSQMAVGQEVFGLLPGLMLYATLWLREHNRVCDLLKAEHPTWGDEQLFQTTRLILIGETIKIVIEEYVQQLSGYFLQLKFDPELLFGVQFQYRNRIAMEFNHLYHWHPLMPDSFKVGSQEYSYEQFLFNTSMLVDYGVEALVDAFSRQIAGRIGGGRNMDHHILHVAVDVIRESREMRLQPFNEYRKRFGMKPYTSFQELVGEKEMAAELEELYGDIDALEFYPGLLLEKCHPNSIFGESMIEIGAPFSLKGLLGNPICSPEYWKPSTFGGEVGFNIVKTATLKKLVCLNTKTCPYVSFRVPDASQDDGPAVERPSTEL
Assay: Human whole blood assay, Cox-1 (clotting-induced TxB2 production)
Conditions: TxB2 following blood clotting
pIC50: −log10 of the molar value.
measured_property: pIC50

## Input Lab note: Cox-1 (Homo sapiens, UniProt P23219) assay, enter pIC50 for CS(=O)(=O)c1ccc(-c2c(-c3ccccc3)nc3sccn23)cc1 here
## Output < 4.52
